Experiment: Agglomerate inhibition in stirred autoclave (water/white spirit/natural gas)
Conditions: 5000 ppm based on water phase; water and white spirit 1:2; 50 bar; 500 rpm; 4° C.
We begin with a simple list: items and their reported Tagg (agglomeration time up to occurrence of gas hydrate agglomerates).

Request: Which value of Tagg (agglomeration time up to occurrence of gas hydrate agglomerates) has been reported for CCCCCCCC/C=C\CCCCCCCCN1CC(C(=O)OCC(C)C)CC1=O (centres unmarked) [Example 19] in the records?
Response: 6.0 h

Request: State the recorded Tagg (agglomeration time up to occurrence of gas hydrate agglomerates) for this entry: CCCCCCCC/C=C\CCCCCCCCN1CC(C(=O)OCC(COC(=O)C2CC(=O)N(CCCCCCCC/C=C\CCCCCCCC)C2)OC(=O)C2CC(=O)N(CCCCCCCC/C=C\CCCCCCCC)C2)CC1=O (centres unmarked) [Example 21]
Response: 2.9 h

Request: Given CCCCCCCC/C=C\CCCCCCCCN1CC(C(=O)OCC(CO)(CO)COC(=O)C2CC(=O)N(CCCCCCCC/C=C\CCCCCCCC)C2)CC1=O (centres unmarked) [Example 22] , state its recorded Tagg (agglomeration time up to occurrence of gas hydrate agglomerates).
Response: 3.8 h

Request: Looking for the measured Tagg (agglomeration time up to occurrence of gas hydrate agglomerates) of CCCCCCCC/C=C\CCCCCCCCN1CC(C(=O)OCC(CC)CCCC)CC1=O (centres unmarked) [Example 20] , can you help?
Response: 3.5 h

For the next question, use this compound.
Request: Which Tagg (agglomeration time up to occurrence of gas hydrate agglomerates) value is on record for CCCCCCCC/C=C\CCCCCCCCN1CC(C(=O)OCC(CO)(COCC(CO)(COC(=O)C2CC(=O)N(CCCCCCCC/C=C\CCCCCCCC)C2)COC(=O)C2CC(=O)N(CCCCCCCC/C=C\CCCCCCCC)C2)COC(=O)C2CC(=O)N(CCCCCCCC/C=C\CCCCCCCC)C2)CC1=O (centres unmarked) [Example 23] ?
Response: 3.8 h
